Source: the supplement of paper PMC9112550

tested on: Escherichia coli TOP10; assay: shrunken log2 fold change of peptide-encoding DNA abundance (4.5 h post-induction vs induction); higher = less antimicrobial activity (less host growth inhibition); conditions: time post-induction: 4.5 h; library: site-saturation at positions 5, 18, 19, 20
Lab note: compare shrunken log2 fold change against -0.04. Equal or greater, write T. Smaller, write F.

sequence chain: RRIRRRPPRLPRPRPRPQWIPRP
assigned class: T
--
sequence chain: RRIRYRPPRLPRPRPRPRLEPRP
assigned class: F
--
sequence chain: RRIRGRPPRLPRPRPRPNPEPRP
assigned class: T
--
sequence chain: RRIRQRPPRLPRPRPRPKIAPRP
assigned class: T
--
sequence chain: RRIRIRPPRLPRPRPRPCDLPRP
assigned class: T
--
sequence chain: RRIRVRPPRLPRPRPRPHCYPRP
assigned class: F
--
sequence chain: RRIRNRPPRLPRPRPRPCPTPRP
assigned class: F
--
sequence chain: RRIRRRPPRLPRPRPRPPHNPRP
assigned class: T
--
sequence chain: RRIRPRPPRLPRPRPRPKHNPRP
assigned class: F

====

test system: Escherichia coli TOP10; assay: shrunken log2 fold change of peptide-encoding DNA abundance (4.5 h post-induction vs induction); higher = less antimicrobial activity (less host growth inhibition); details: time post-induction: 4.5 h; library: site-saturation at positions 5, 18, 19, 20

sequence chain: RRIRNRPPRLPRPRPRPCTAPRP
shrunken log2 fold change: 0.022
//
sequence chain: RRIRDRPPRLPRPRPRPQYHPRP
shrunken log2 fold change: -0.47
//
sequence chain: RRIRIRPPRLPRPRPRPRCVPRP
shrunken log2 fold change: -0.0162
//
sequence chain: RRIRGRPPRLPRPRPRPRIVPRP
shrunken log2 fold change: 0.824
//
sequence chain: RRIRYRPPRLPRPRPRPEFFPRP
shrunken log2 fold change: -0.0803
//
sequence chain: RRIRTRPPRLPRPRPRPDKLPRP
shrunken log2 fold change: 0.0136
//
sequence chain: RRIRCRPPRLPRPRPRPWVAPRP
shrunken log2 fold change: -0.0206
//
sequence chain: RRIRVRPPRLPRPRPRPVQGPRP
shrunken log2 fold change: 0.0692
//
sequence chain: RRIRWRPPRLPRPRPRPITVPRP
shrunken log2 fold change: -0.0559
//
sequence chain: RRIRMRPPRLPRPRPRPYQQPRP
shrunken log2 fold change: -0.00196
//
sequence chain: RRIRCRPPRLPRPRPRPKGHPRP
shrunken log2 fold change: -0.17
//
sequence chain: RRIRNRPPRLPRPRPRPITNPRP
shrunken log2 fold change: -0.279
//
sequence chain: RRIRERPPRLPRPRPRPLECPRP
shrunken log2 fold change: -0.498
//
sequence chain: RRIRYRPPRLPRPRPRPCENPRP
shrunken log2 fold change: -0.215
//
sequence chain: RRIRKRPPRLPRPRPRPGWLPRP
shrunken log2 fold change: 0.593
//
sequence chain: RRIRERPPRLPRPRPRPRCFPRP
shrunken log2 fold change: -0.128
//
sequence chain: RRIRCRPPRLPRPRPRPTWCPRP
shrunken log2 fold change: -0.0117
//
sequence chain: RRIRWRPPRLPRPRPRPFTFPRP
shrunken log2 fold change: -0.326
//
sequence chain: RRIRLRPPRLPRPRPRPRNFPRP
shrunken log2 fold change: -0.112
//
sequence chain: RRIRTRPPRLPRPRPRPHVRPRP
shrunken log2 fold change: -0.00804
//
sequence chain: RRIRQRPPRLPRPRPRPKQPPRP
shrunken log2 fold change: 0.0884
//
sequence chain: RRIRDRPPRLPRPRPRPYNTPRP
shrunken log2 fold change: -0.476
//
sequence chain: RRIRPRPPRLPRPRPRPQHGPRP
shrunken log2 fold change: -0.189
//
sequence chain: RRIRVRPPRLPRPRPRPPTFPRP
shrunken log2 fold change: 0.0282
//
sequence chain: RRIRQRPPRLPRPRPRPQSKPRP
shrunken log2 fold change: -0.574
//
sequence chain: RRIRIRPPRLPRPRPRPIYDPRP
shrunken log2 fold change: -0.471
//
sequence chain: RRIRQRPPRLPRPRPRPDQWPRP
shrunken log2 fold change: 0.129
//
sequence chain: RRIRMRPPRLPRPRPRPCLAPRP
shrunken log2 fold change: 0.215
//
sequence chain: RRIRNRPPRLPRPRPRPAKPPRP
shrunken log2 fold change: -0.00229
//
sequence chain: RRIRFRPPRLPRPRPRPRQCPRP
shrunken log2 fold change: -0.123
//
sequence chain: RRIRQRPPRLPRPRPRPMREPRP
shrunken log2 fold change: 0.0211
//
sequence chain: RRIRYRPPRLPRPRPRPNKKPRP
shrunken log2 fold change: -0.298
//
sequence chain: RRIRFRPPRLPRPRPRPSKTPRP
shrunken log2 fold change: 0.0514
//
sequence chain: RRIRKRPPRLPRPRPRPCWTPRP
shrunken log2 fold change: -0.0905
//
sequence chain: RRIRCRPPRLPRPRPRPAMEPRP
shrunken log2 fold change: 0.111
//
sequence chain: RRIRYRPPRLPRPRPRPWMPPRP
shrunken log2 fold change: -0.417
//
sequence chain: RRIRGRPPRLPRPRPRPTWRPRP
shrunken log2 fold change: 0.673
//
sequence chain: RRIRNRPPRLPRPRPRPLQQPRP
shrunken log2 fold change: 0.0184
//
sequence chain: RRIRTRPPRLPRPRPRPNFGPRP
shrunken log2 fold change: -0.0173
//
sequence chain: RRIRARPPRLPRPRPRPLPNPRP
shrunken log2 fold change: 0.286
//
sequence chain: RRIRERPPRLPRPRPRPKWHPRP
shrunken log2 fold change: -0.136
//
sequence chain: RRIRARPPRLPRPRPRPNAFPRP
shrunken log2 fold change: 0.424
//
sequence chain: RRIRARPPRLPRPRPRPVLVPRP
shrunken log2 fold change: 0.0133
//
sequence chain: RRIRKRPPRLPRPRPRPLLLPRP
shrunken log2 fold change: -0.105
//
sequence chain: RRIRNRPPRLPRPRPRPMPHPRP
shrunken log2 fold change: -0.626
//
sequence chain: RRIRIRPPRLPRPRPRPTAWPRP
shrunken log2 fold change: 0.152
//
sequence chain: RRIRFRPPRLPRPRPRPCFCPRP
shrunken log2 fold change: -0.453
//
sequence chain: RRIRMRPPRLPRPRPRPPSCPRP
shrunken log2 fold change: 0.932
//
sequence chain: RRIRVRPPRLPRPRPRPYTGPRP
shrunken log2 fold change: -0.0211
//
sequence chain: RRIRKRPPRLPRPRPRPGPVPRP
shrunken log2 fold change: 0.531
//
sequence chain: RRIRPRPPRLPRPRPRPMRWPRP
shrunken log2 fold change: 0.707
//
sequence chain: RRIRIRPPRLPRPRPRPHYWPRP
shrunken log2 fold change: -0.85
//
sequence chain: RRIRERPPRLPRPRPRPYSDPRP
shrunken log2 fold change: -0.308
//
sequence chain: RRIRVRPPRLPRPRPRPHTMPRP
shrunken log2 fold change: -0.252
//
sequence chain: RRIRMRPPRLPRPRPRPCGHPRP
shrunken log2 fold change: 0.0237
//
sequence chain: RRIRSRPPRLPRPRPRPNLHPRP
shrunken log2 fold change: -0.219
//
sequence chain: RRIRKRPPRLPRPRPRPRIIPRP
shrunken log2 fold change: 0.081

====

// reported shrunken log2 fold change for each item listed
test system: Escherichia coli TOP10; test: shrunken log2 fold change of peptide-encoding DNA abundance (4.5 h post-induction vs induction); higher = less antimicrobial activity (less host growth inhibition); conditions: time post-induction: 4.5 h; library: site-saturation at positions 5, 18, 19, 20

sequence chain: RRIRKRPPRLPRPRPRPENRPRP
target or system: Escherichia coli TOP10
shrunken log2 fold change: 0.246

sequence chain: RRIRLRPPRLPRPRPRPNRYPRP
target or system: Escherichia coli TOP10
shrunken log2 fold change: 0.0611

sequence chain: RRIRVRPPRLPRPRPRPNLFPRP
target or system: Escherichia coli TOP10
shrunken log2 fold change: -0.355

sequence chain: RRIRVRPPRLPRPRPRPPRGPRP
target or system: Escherichia coli TOP10
shrunken log2 fold change: 0.665

sequence chain: RRIRGRPPRLPRPRPRPIACPRP
target or system: Escherichia coli TOP10
shrunken log2 fold change: 0.526

sequence chain: RRIRPRPPRLPRPRPRPMHFPRP
target or system: Escherichia coli TOP10
shrunken log2 fold change: 0.015

====

// reported shrunken log2 fold change for each item listed
tested on: Escherichia coli TOP10; assay: shrunken log2 fold change of peptide-encoding DNA abundance (4.5 h post-induction vs induction); higher = less antimicrobial activity (less host growth inhibition); conditions: time post-induction: 4.5 h; library: site-saturation at positions 5, 18, 19, 20;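 further: peptides expressed intracellularly from a pBAD plasmid library in pooled LB shake-flask culture, induced with 0.3% L-arabinose, DNA abundance read by NGS, three biological replicates, DESeq2 with apeglm shrinkage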
quantity: shrunken log2 fold change

sequence chain: RRIRKRPPRLPRPRPRPSRHPRP
quantity: shrunken log2 fold change
value reported: 0.0967
//
sequence chain: RRIRMRPPRLPRPRPRPHWLPRP
quantity: shrunken log2 fold change
value reported: -0.183
//
sequence chain: RRIRYRPPRLPRPRPRPKAQPRP
quantity: shrunken log2 fold change
value reported: 0.35
//
sequence chain: RRIRIRPPRLPRPRPRPVGVPRP
quantity: shrunken log2 fold change
value reported: -0.157
//
sequence chain: RRIRCRPPRLPRPRPRPFTCPRP
quantity: shrunken log2 fold change
value reported: -0.223
//
sequence chain: RRIRLRPPRLPRPRPRPGWRPRP
quantity: shrunken log2 fold change
value reported: 0.317
//
sequence chain: RRIRKRPPRLPRPRPRPTPNPRP
quantity: shrunken log2 fold change
value reported: 0.553
